# System: UACC-257 melanoma
# run.description: NCI-60 one-dose screen, 48 h (100 = growth as untreated, 0 = no growth, -100 = all killed)
# study.conditions: 10 µM unless noted
Compounds without any hit were thinned out: in the full panel of roughly 83,000, 20% have a hit.
The entries below are paired with their reported growth.
Give the quantity in %, number only.

Some compounds with known growth results, for comparison:
| compound | quantity.name | unit.label | result.number |
| --- | --- | --- | --- |
| COc1ccc(CCNC(=S)NN)cc1OC | growth | % | 108 |
| CCCCC/C(C)=N\NC(N)=S | growth | % | 60 |
| O=C1Cc2ccccc2C(=O)N1 | growth | % | 89.4 |
| CCN(CC)C(CC(=O)c1ccccc1)C(=O)c1ccccc1 (stereo not drawn) | growth | % | 95.5 |
| CCOC(C)=N | growth | % | 104 |

Query block: Give the value of growth reported for the following: Clc1ccc2c(c1)N(C1CCCN(Cc3ccccc3)C1)c1ccccc1S2 (stereo not drawn)
Result block: 55.1

Query block: Give the value of growth reported for the following: Cc1ccc(NC(=S)N/C=C(\c2ccccc2)S(=O)Cc2ccccc2)c(C)c1 (stereo not drawn)
Result block: 98.9

Query block: Give the value of growth reported for the following: CC(NC(=O)CCl)c1ccccc1 (stereo not drawn)
Result block: 100

Query block: Give the value of growth reported for the following: "CCc1ccc(OC(=O)CCl)cc1"
Result block: 103

Query block: Give the value of growth reported for the following: "O=C1C=CC(=O)N1Cc1ccco1"
Result block: 104

Query block: Give the value of growth reported for the following: "O=C(O)COc1ccccc1F"
Result block: 115

Query block: Give the value of growth reported for the following: "Nc1nc(-c2ccccn2)cc(-c2cc(-c3ccccn3)nc(N)n2)n1"
Result block: 112

Query block: Give the value of growth reported for the following: O=C(NC(CSSCC(NC(=O)OCc1ccccc1)C(=O)O)C(=O)O)OCc1ccccc1 (stereo not drawn)
Result block: 91.9

* * *

The entries below are paired with their reported growth.
# Tested on: ACHN renal
# run.description: NCI-60 one-dose screen, 48 h (100 = growth as untreated, 0 = no growth, -100 = all killed)
# study.conditions: 10 µM unless noted
The panel holds about 83,000 compounds, 20% with a hit somewhere; the sample as a whole holds those more often.
Give the quantity in %, number only.

Some molecules with known growth results, for comparison:
| molecule | target.of.assay | growth / % |
| --- | --- | --- |
| CC(O)CCNC(c1ccccc1)C(O)c1ccccc1 (stereo not drawn) | ACHN renal | 109 |
| CN(C)CC(CN(C)C)C(O)c1ccccc1 (stereo not drawn) | ACHN renal | 105 |
| O=[N+]([O-])c1cccc(N=Cc2ccccc2)c1 | ACHN renal | 102 |
| O=C1Cc2ccccc2C(=O)N1 | ACHN renal | 82.1 |
| COc1ccc(CCO)cc1 | ACHN renal | 103 |

Query block: Give the value of growth reported for the following: "CCN(CC)C(=S)SCCO"
Result block: 111

Query block: Give the value of growth reported for the following: "CCOC(=O)c1ccc(C(=N)N)cc1"
Result block: 126

Query block: Give the value of growth reported for the following: "Cc1c(Cl)c(C)c(Cc2c(C)c(Cl)c(C)c(Cl)c2O)c(O)c1Cl"
Result block: 3.3

Query block: Give the value of growth reported for the following: "O=C1C=CC(=O)N1Cc1ccco1"
Result block: 5.76

Query block: Give the value of growth reported for the following: "CC(=O)Nc1ccc2oc(=O)ccc2c1"
Result block: 113

Query block: Give the value of growth reported for the following: "CC(=O)Nc1cscc1NC(C)=O"
Result block: 96.3

Query block: Give the value of growth reported for the following: "CN(C=O)c1ccccc1"
Result block: 92

Query block: Give the value of growth reported for the following: "O=C(O)c1ccc2c3ccc(C(=O)O)c4c(C(=O)O)ccc(c5ccc(C(=O)O)c1c25)c43"
Result block: 107

Query block: Give the value of growth reported for the following: "NCCSSC/C=C\CSSCCN"
Result block: 110

Query block: Give the value of growth reported for the following: "ON=C(C1CCCCC1)C1CCCCC1"
Result block: 101

Query block: Give the value of growth reported for the following: "COc1cc(Cl)ccc1C"
Result block: -8.72

Query block: Give the value of growth reported for the following: "OCCCc1ccccc1"
Result block: 106

Query block: Give the value of growth reported for the following: CCC(C)(O)CCC(C)(O)CC (stereo not drawn)
Result block: 111
